Tested on: HCC1569
Experiment: cell number relative to DMSO (% of DMSO); higher = more cells (less growth inhibition / toxicity)
Conditions: concentration: 10 µM; 24 h

>  <compound>
COc1ccc(C=C2c3ccccc3C(=O)c3ccccc32)cc1O [10-(3-hydroxy-4-methoxybenzylidene)-9(10H)-anthracenone]

>  <cell number>
62.7

$$$$
>  <compound>
CCOC(=O)c1csc(Nc2ccc(Cl)cc2)n1 [ethyl 2-(4-chloroanilino)-1,3-thiazole-4-carboxylate]

>  <cell number>
97

$$$$
>  <compound>
COc1cc(Br)c(CC2c3cc(OC)c(OC)cc3CCN2C)cc1OC (racemic)

>  <cell number>
99.7

$$$$
>  <compound>
CCN(CC)CCNC(=O)c1c(C)[nH]c(C=C2C(=O)Nc3ccc(F)cc32)c1C

>  <cell number>
92.1

$$$$

###

Test system: TDF
Experiment: H1.0 immunofluorescence intensity relative to DMSO (% of DMSO); higher = stronger H1.0 induction, active = 120 or more
Settings: concentration: 10 µM; 24 h
Measured H1.0 immunofluorescence intensity, listed per entry.
propertyLabel: H1.0 immunofluorescence intensity

>  <molecule>
Nc1[nH]nc2nc3ccccc3nc12

>  <observed>
101

$$$$
>  <molecule>
COc1cccc2oc(-c3ccccc3)cc(=O)c12

>  <observed>
100

$$$$
>  <molecule>
O=C(O)CNC(=O)C(=O)O

>  <observed>
93.7

$$$$
>  <molecule>
NC(=O)N1C(=O)/C(=C(\O)c2cccs2)c2cc(Cl)ccc21

>  <observed>
94.8

$$$$
>  <molecule>
CCCCCCCCCCCCCCCCOP(=O)([O-])OCC[N+](C)(C)C

>  <observed>
92.7

$$$$
>  <molecule>
C=CC(C)(C=Cc1ccc(O)cc1)CCC=C(C)C (centres undefined)

>  <observed>
97.7

$$$$
>  <molecule>
CCCCNc1ccc(C(=O)OCCN(C)C)cc1.Cl [Tetracaine hydrochloride]

>  <observed>
102

$$$$
>  <molecule>
NC(CO)(CO)CO.O=C(c1ccccc1)c1ccc2n1CCC2C(=O)O (centres undefined) [Ketorolac tris salt]

>  <observed>
94.5

$$$$
>  <molecule>
CCCCCCCCC(=O)NCc1cc(OC)c(O)cc1I [N-(4-hydroxy-2-iodo-5-methoxybenzyl)nonanamide]

>  <observed>
93.2

$$$$

###

Measured cell number, listed per entry.
Test system: TDF
Assay: cell number relative to DMSO (% of DMSO); higher = more cells (less growth inhibition / toxicity)
Conditions: concentration: 10 µM; 24 h
propertyLabel: cell number

>  <compound>
CCN1C(=CC(C)=O)Sc2ccc(OC)cc21

>  <observed>
112

$$$$
>  <compound>
CCCOc1ccccc1-c1nc2[nH][nH]nc-2c(=O)n1

>  <observed>
113

$$$$
>  <compound>
CNCCC(Oc1ccccc1OC)c1ccccc1.Cl (configuration not stated) [Nisoxetine.HCl]

>  <observed>
101

$$$$
>  <compound>
CCC1(O)CC2CN(CCc3c([nH]c4ccccc34)C(C(=O)OC)(c3cc4c(cc3OC)N(C=O)C3C(O)(C(=O)OC)C(OC(C)=O)C5(CC)C=CCN6CCC43C65)C2)C1.O=S(=O)(O)O (configuration not stated) [Vincristine sulfate]

>  <observed>
9.46

$$$$
>  <compound>
CCCCCCCCCCCCCCC[C@@H](O)[C@@H](N)CO

>  <observed>
39.4

$$$$
>  <compound>
Cc1cccc(C#Cc2ccccc2)n1.Cl [6-Methyl-2-(phenylethynyl)pyridine hydrochloride]

>  <observed>
105

$$$$
>  <compound>
CC1=CCCC(C)(O)C=CC(C(C)C)C(OC(=O)c2ccc(O)cc2)C1 (configuration not stated)

>  <observed>
96

$$$$
